These measurements were taken from patent US20220267260A1.

# measured-target: KAT5 (Homo sapiens)
# Sequence (Q92993 with tags, fused parts or gaps): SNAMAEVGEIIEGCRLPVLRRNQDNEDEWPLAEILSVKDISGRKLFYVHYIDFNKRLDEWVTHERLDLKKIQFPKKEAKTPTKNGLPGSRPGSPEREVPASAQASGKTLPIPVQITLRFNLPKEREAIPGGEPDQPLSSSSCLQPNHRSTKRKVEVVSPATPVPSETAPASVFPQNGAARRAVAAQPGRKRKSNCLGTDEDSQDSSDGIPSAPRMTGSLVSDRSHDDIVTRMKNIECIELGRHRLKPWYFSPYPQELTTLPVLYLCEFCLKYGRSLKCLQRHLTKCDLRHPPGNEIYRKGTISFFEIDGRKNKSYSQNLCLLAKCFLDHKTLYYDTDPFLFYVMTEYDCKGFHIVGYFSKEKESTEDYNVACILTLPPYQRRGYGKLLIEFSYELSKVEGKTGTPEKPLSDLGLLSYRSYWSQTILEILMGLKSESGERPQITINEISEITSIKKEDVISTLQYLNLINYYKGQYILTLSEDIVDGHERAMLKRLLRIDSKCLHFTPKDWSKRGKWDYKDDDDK
quantity-kind: IC50

Example cases with answers are listed next.
{"compound": "CCc1cc(Cl)c(F)c(C(=O)NNS(=O)(=O)CC2CCOCC2)c1", "IC50": "10 to 50 µM"}
{"compound": "COc1cc(-c2ccccc2)cc(C(=O)NNS(=O)(=O)C2CCCCC2)c1F", "IC50": "10 to 50 µM"}
{"compound": "Cc1cc(-c2ccccc2)cc(C(=O)NNS(=O)(=O)Cc2ccccc2F)c1F", "IC50": "≤ 10 µM"}
{"compound": "Cc1c(-c2ccccc2)ccc(F)c1C(=O)NNS(=O)(=O)c1cccc(Cl)c1", "IC50": "50 to 100 µM"}
{"compound": "COCCOc1cccc(-c2cc(C)c(F)c(C(=O)NNS(=O)(=O)c3ccccc3)c2)c1", "IC50": "10 to 50 µM"}

Asked: Answer briefly: IC50 recorded on KAT5 (Homo sapiens) for O=C(NNS(=O)(=O)c1ccc2ccccc2c1)c1cccc(-c2ccccc2)c1
Given back: 50 to 100 µM
